Tested on: SCC90 (Head and Neck Carcinoma)
Test: Bliss excess, mean over the matrix (fraction); higher = more synergy
Provide the reported Bliss excess of each item.

CC1(C)CCC(CN2CCN(c3ccc(C(=O)NS(=O)(=O)c4ccc(NCC5CCOCC5)c([N+](=O)[O-])c4)c(Oc4cnc5[nH]ccc5c4)c3)CC2)=C(c2ccc(Cl)cc2)C1 [Venetoclax] + Cc1cc2ncnn2cc1Nc1ncc2c(n1)n(C1CCOCC1)c(=O)n2C [AZD7648] (first compound max 1 µM, 7x7, partner max 10 µM); 0.118

Now, please, on to the next molecule.
If you can, please state the reported Bliss excess value of COc1nnc2ccc(N3CCC(c4ccc(OCCN5CCN(C)C(=O)[C@H]5C)cc4)CC3)nn12 [AZD5153] + Cc1c2c(nn1C)CSCc1cc(n(C)n1)CSc1cc(c3ccccc3c1)OCCCc1c(C(=O)O)n(C)c3c-2c(Cl)ccc13 [AZD5991] (first compound max 1 µM, 7x7, partner max 1 µM) .
0.0814

###

System: SBC-5 (Small Cell Lung Carcinoma)
Test: Bliss excess, mean over the matrix (fraction); higher = more synergy
For each record, write down the corresponding Bliss excess.
Answers are plain numbers.

Completed entries (count: 2):
CC(=O)c1c(C)c2cnc(Nc3ccc(N4CCNCC4)cn3)nc2n(C2CCCC2)c1=O [Palbociclib] + CN(CC[C@H](CSC1=CC=CC=C1)NC2=C(C=C(C=C2)S(=O)(=O)NC(=O)C3=CC=C(C=C3)N4CCC(CC4)[C@H](C5=CC=CC=C5C6=CC=C(C=C6)Cl)O)S(=O)(=O)C(F)(F)F)CCO [AZD4320] (first compound max 10 µM, 7x7, partner max 1 µM); -0.0715
COc1cccc(OCCCN)c1-c1cc(Nc2cnc(C#N)cn2)n[nH]1 [Prexasertib] + C[C@@H]1COCCN1C2=NC(=NC(=C2)C3(CC3)[S@](=N)(=O)C)C4=C5C=CNC5=NC=C4 [AZD6738] (first compound max 1 µM, 7x7, partner max 10 µM); -0.0272

Okay, next one:
Record request: Bliss excess value, item Cc1cc2ncnn2cc1Nc1ncc2c(n1)n(C1CCOCC1)c(=O)n2C [AZD7648] + O=C(c1cc(Cc2n[nH]c(=O)c3ccccc23)ccc1F)N1CCN(C(=O)C2CC2)CC1 [Olaparib] (first compound max 10 µM, 7x7, partner max 10 µM)
-0.034

###

System: SK-MEL-24 (Melanoma)
Test: combination Emax (second highest fraction inhibited in the dose matrix, 72 h); higher = more inhibition; extreme values may be limits of the assay
Exercise: for every item that follows, state its recorded combination Emax.

CC1(C)CCC(CN2CCN(c3ccc(C(=O)NS(=O)(=O)c4ccc(NCC5CCOCC5)c([N+](=O)[O-])c4)c(Oc4cnc5[nH]ccc5c4)c3)CC2)=C(c2ccc(Cl)cc2)C1 [Venetoclax] + C1CN(CCC1(C(=O)N[C@@H](CCO)C2=CC=C(C=C2)Cl)N)C3=NC=NC4=C3C=CN4 [Capivasertib] (first compound max 1 µM, 7x7, partner max 3 µM); 0.361

In the following, a different molecule is considered.
Which measured combination Emax value corresponds to N#Cc1cnc(Nc2cc(NC[C@H]3CNCCO3)c(C(F)(F)F)cn2)cn1 [SRA737] + O=c1[nH]cc(F)c(=O)[nH]1 [5-Fluorouracil] (first compound max 10 µM, 7x7, partner max 20 µM) ?
0.314
